Examples of compounds with documented pKi follow.
Target: GT1a D168A NS3/4A protease (UniProt P27958, D1194A, species not given)
Construct: rows headed: Ki (nM) D168A; Ki D168A; other: D168A variant
Assay type: biochemical, Hepatitis C virus
Details: read-out: Ki D168A; D168A variant
Note on units: pKi is unitless, being -log10 of a concentration expressed in mol/L.

Problem: Could you tell me which pKi is on file for C=C[C@@H]1C[C@]1(NC(=O)[C@@H]1C[C@@H](Oc2nc3cc(OC)ccc3nc2C)CN1C(=O)[C@@H](NC(=O)OC(C)(C)C)C(C)(C)C)C(=O)NS(=O)(=O)C1(C)CC1 [Compound 10b] ?
Solution: 6.58

Problem: // repeat for C=C[C@@H]1C[C@]1(NC(=O)[C@@H]1C[C@@H](Oc2nc3cc(OC)ccc3nc2C(C)C)CN1C(=O)[C@@H](NC(=O)OC(C)(C)C)C(C)(C)C)C(=O)NS(=O)(=O)C1CC1 [Compound 9c] and report
Solution: 5.96

Problem: Now try C=C[C@@H]1C[C@]1(NC(=O)[C@@H]1C[C@@H](Oc2nc3cc(OC)ccc3nc2CC)CN1C(=O)[C@@H](NC(=O)OC1CCCC1)C(C)(C)C)C(=O)NS(=O)(=O)C1(C)CC1 [Compound 12a] .
Solution: 6.84

Problem: How about C=C[C@@H]1C[C@]1(NC(=O)[C@@H]1C[C@@H](Oc2nc3cc(OC)ccc3nc2C(C)C)CN1C(=O)[C@@H](NC(=O)OC1CCCC1)C(C)(C)C)C(=O)NS(=O)(=O)C1CC1 [Compound 11c] ?
Solution: 6.01

Problem: Same thing, different compound: C=C[C@@H]1C[C@]1(NC(=O)[C@@H]1C[C@@H](Oc2nc3cc(OC)ccc3nc2C)CN1C(=O)[C@@H](NC(=O)OC(C)(C)C)C(C)(C)C)C(=O)NS(=O)(=O)C1CC1 [Compound 9b]
Solution: 6.54

###

Tested on: HCV replicon D168V variant in Huh7 cells
Assay: microbe, parasite or virus in culture
Type: cell-based, Hepatitis C virus
Conditions: Hepatitis C virus, Huh-7, read-out: Replicon EC50 (nM) D168V, Table 4
Recorded measurements of EC50, one per entry
Numeric answer only, unit nM assumed.

Recorded results for 4 compounds are shown here.
COMPOUND	MEASUREMENT UNITS	EC50
CCc1nc2ccccc2nc1O[C@@H]1C[C@H]2C(=O)N[C@]3(C(=O)NS(=O)(=O)C4CC4)C[C@H]3/C=C\CCCCC[C@H](NC(=O)OC3CCCC3)C(=O)N2C1 [Compound 22g]	nM	19.3
CC(C)(C)OC(=O)N[C@H]1CCCCC/C=C\[C@@H]2C[C@@]2(C(=O)NS(=O)(=O)C2CC2)NC(=O)[C@@H]2C[C@@H](Oc3nc4ccccc4nc3-c3cccs3)CN2C1=O [Compound 18f, reference compound]	nM	193
CCc1nc2ccc(OC)cc2nc1O[C@@H]1C[C@H]2C(=O)N[C@]3(C(=O)NS(=O)(=O)C4CC4)C[C@H]3/C=C\CCCCC[C@H](NC(=O)OC(C)(C)C)C(=O)N2C1	nM	9.1
COc1ccc2nc(C(C)C)c(O[C@@H]3C[C@H]4C(=O)N[C@]5(C(=O)NS(=O)(=O)C6(C)CC6)C[C@H]5/C=C\CCCCC[C@H](NC(=O)OC(C)(C)C)C(=O)N4C3)nc2c1 [Compound 19e]	nM	18.1

Problem: Quick one: EC50 for COc1ccc2nc(C(C)C)c(O[C@@H]3C[C@H]4C(=O)N[C@]5(C(=O)NS(=O)(=O)C6(C)CC6)C[C@H]5/C=C\CCCCC[C@H](NC(=O)OC5CCCC5)C(=O)N4C3)nc2c1 [Compound 23e] ?
Solution: 18.2

Problem: And the next one, COc1ccc2nc(C(F)(F)F)c(O[C@@H]3C[C@H]4C(=O)N[C@]5(C(=O)NS(=O)(=O)C6CC6)C[C@H]5/C=C\CCCCC[C@H](NC(=O)OC(C)(C)C)C(=O)N4C3)nc2c1 [Compound 18d] ?
Solution: 17.1

###

Tested on: HCV replicon A156T variant in Huh7 cells
Experiment: microbe, parasite or virus in culture
Type: cell-based, Hepatitis C virus
Settings: Table 4; relative to WT replicon

MOLECULE	Replicon EC50 (Fold change) A156T
COc1ccc2nc(Cl)c(O[C@@H]3C[C@H]4C(=O)N[C@]5(C(=O)NS(=O)(=O)C6CC6)C[C@H]5/C=C\CCCCC[C@H](NC(=O)OC5CCCC5)C(=O)N4C3)nc2c1 [Compound 22c]	(24) fold
COc1ccc2nc(C(F)(F)F)c(O[C@@H]3C[C@H]4C(=O)N[C@]5(C(=O)NS(=O)(=O)C6CC6)C[C@H]5/C=C\CCCCC[C@H](NC(=O)OC5CCCC5)C(=O)N4C3)nc2c1 [Compound 22d]	(24) fold

###

Biological target: wild-type GT1a NS3/4A protease (UniProt P27958, C1185S, species not given)
Construct: Ki (nM) GT1a WT NS3/4A Protease
Format: biochemical, Hepatitis C virus
Conditions: read-out: Ki (nM) GT1a WT NS3/4A Protease; Table 3
PARAMETER: Ki (nM)
Answer with a number only, understood to be in nM.

As a guide, the following entries are already answered.
COMPOUND	Ki (nM)
COc1ccc2nc(C(C)C)c(O[C@@H]3C[C@H]4C(=O)N[C@]5(C(=O)NS(=O)(=O)C6CC6)C[C@H]5/C=C\CCCCC[C@H](NC(=O)OC5CCCC5)C(=O)N4C3)nc2c1 [Compound 22e]	1.44
COc1ccc2nc(C)c(O[C@@H]3C[C@H]4C(=O)N[C@]5(C(=O)NS(=O)(=O)C6(C)CC6)C[C@H]5/C=C\CCCCC[C@H](NC(=O)OC(C)(C)C)C(=O)N4C3)nc2c1 [Compound 19b]	3.6
COc1ccc2nc(Cl)c(O[C@@H]3C[C@H]4C(=O)N[C@]5(C(=O)NS(=O)(=O)C6(C)CC6)C[C@H]5/C=C\CCCCC[C@H](NC(=O)OC5CCCC5)C(=O)N4C3)nc2c1 [Compound 23c]	0.44
CC(C)(C)OC(=O)N[C@H]1CCCCC/C=C\[C@@H]2C[C@@]2(C(=O)NS(=O)(=O)C2CC2)NC(=O)[C@@H]2C[C@@H](Oc3nc4ccccc4nc3-c3cccs3)CN2C1=O [Compound 18f, reference compound]	1.03

Field: next compound
Problem: // Ki lookup, key: O=C(N[C@H]1CCCCC/C=C\[C@@H]2C[C@@]2(C(=O)NS(=O)(=O)C2CC2)NC(=O)[C@@H]2C[C@@H](Oc3nc4ccccc4nc3-c3cccs3)CN2C1=O)OC1CCCC1 [Compound 22f]
Solution: 1.59

###

Molecular target: GT1a D168A NS3/4A protease (UniProt P27958, C1185S/D1194A, species not given)
Construct: P4/P4-P5 modified macrocycles
Assay type: biochemical, Hepatitis C virus
Conditions: read-out: Ki (nM) D168A; Table 6; P4/P4-P5 modified macrocycles
Method: For each assay, 2 nM of NS3/4A protease (GT1, D168A and GT3) was pre-incubated at room temperature for 1 h with increasing concentration of inhibitors in assay buffer [50 mM Tris, 5% glycerol, 10 mM DTT, 0.6 mM LDAO, and 4% dimethyl sulfoxide]. Inhibition assays were performed in nonbinding surface 96-well black half-area plates (Corning) in a reaction volume of 60 μt. […] Three independent data sets were collected for each inhibitor with each protease construct. […]
The entries below come with measured Ki values attached.
Write the answer as a number in nM, unit excluded.

Check out these entries, answers already filled in.
COMPOUND STRUCTURE STRING	MEASUREMENT UNITS	TEST RESULT
CC[C@H](C)[C@H](NC(C)=O)C(=O)N[C@H]1CCCCC/C=C\[C@@H]2C[C@@]2(C(=O)NS(=O)(=O)C2(C)CC2)NC(=O)[C@@H]2C[C@@H](Oc3nc4cc(OC)ccc4nc3C)CN2C1=O	nM	81
COc1ccc2nc(C)c(O[C@@H]3C[C@H]4C(=O)N[C@]5(C(=O)NS(=O)(=O)C6(C)CC6)C[C@H]5/C=C\CCCCC[C@H](NC(=O)[C@@H](NC(C)=O)C(C)(C)C)C(=O)N4C3)nc2c1	nM	215
COC(=O)N[C@H](C(=O)N[C@H]1CCCCC/C=C\[C@@H]2C[C@@]2(C(=O)NS(=O)(=O)C2(C)CC2)NC(=O)[C@@H]2C[C@@H](Oc3nc4cc(OC)ccc4nc3C)CN2C1=O)C1CCCC1	nM	31.6

Could you now consider this next compound?
Problem: Report Ki for `COc1ccc2nc(C)c(O[C@@H]3C[C@H]4C(=O)N[C@]5(C(=O)NS(=O)(=O)C6(C)CC6)C[C@H]5/C=C\CCCCC[C@H](NC(=O)[C@@H](NC(C)=O)C(C)C)C(=O)N4C3)nc2c1` please.
Solution: 141
